- Assay Target: Proto-oncogene tyrosine-protein kinase Src (Homo sapiens, UniProt P12931)
- Sequence (P12931 2-536 limits assumed): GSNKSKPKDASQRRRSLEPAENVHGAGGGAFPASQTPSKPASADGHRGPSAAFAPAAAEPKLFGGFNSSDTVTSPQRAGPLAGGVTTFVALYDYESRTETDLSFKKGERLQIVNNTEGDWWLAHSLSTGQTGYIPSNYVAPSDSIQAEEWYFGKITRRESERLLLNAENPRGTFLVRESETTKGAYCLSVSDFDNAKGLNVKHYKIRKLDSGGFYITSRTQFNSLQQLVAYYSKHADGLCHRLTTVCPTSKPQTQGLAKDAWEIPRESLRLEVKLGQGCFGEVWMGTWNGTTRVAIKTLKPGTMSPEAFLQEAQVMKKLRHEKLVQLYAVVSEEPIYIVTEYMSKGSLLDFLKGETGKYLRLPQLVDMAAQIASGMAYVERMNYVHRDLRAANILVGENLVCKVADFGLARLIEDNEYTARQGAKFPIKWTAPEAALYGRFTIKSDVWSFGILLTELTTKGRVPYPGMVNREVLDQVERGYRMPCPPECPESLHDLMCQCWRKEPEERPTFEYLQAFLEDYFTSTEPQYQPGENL
- Assay Overview: Inhibition of recombinant c-Src (unknown origin)
Recorded Endpoint: IC50 (nM)
The answer is to be given in nM; state only the numeric part.

In: Given the molecule COc1ccc2c(c1)/C(=C1/Nc3ccccc3/C1=N\OCC(O)CO)C(=O)N2 (stereo unspecified) , what is its reported IC50?
Out: 10.7

###

- Assay Target: Cyclin-dependent kinase 4/cyclin D1 (Homo sapiens)
- Sequence (P11802 whole entry): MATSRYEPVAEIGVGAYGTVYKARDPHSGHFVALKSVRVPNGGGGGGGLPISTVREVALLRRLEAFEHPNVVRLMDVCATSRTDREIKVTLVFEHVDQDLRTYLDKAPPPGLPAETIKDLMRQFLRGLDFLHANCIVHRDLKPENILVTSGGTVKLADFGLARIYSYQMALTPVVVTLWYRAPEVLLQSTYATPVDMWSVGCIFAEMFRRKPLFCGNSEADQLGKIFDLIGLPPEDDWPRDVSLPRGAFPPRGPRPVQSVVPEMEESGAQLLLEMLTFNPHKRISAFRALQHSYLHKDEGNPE
- Sequence (P24385 whole entry, further chain): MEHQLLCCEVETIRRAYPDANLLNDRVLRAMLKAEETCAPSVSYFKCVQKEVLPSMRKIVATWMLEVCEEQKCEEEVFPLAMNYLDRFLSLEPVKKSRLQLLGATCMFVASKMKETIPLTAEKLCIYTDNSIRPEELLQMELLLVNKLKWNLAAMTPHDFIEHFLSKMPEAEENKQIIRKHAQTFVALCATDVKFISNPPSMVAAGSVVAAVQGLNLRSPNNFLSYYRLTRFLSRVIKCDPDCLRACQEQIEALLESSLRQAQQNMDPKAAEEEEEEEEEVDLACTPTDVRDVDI
- Assay Overview: Inhibition of CDK4/cyclin D1 (unknown origin)
Recorded Endpoint: pIC50
The meaning of pIC50 here: minus log10 of the concentration in molar units.

In: Given the compound `O=C1Nc2ccccc2/C1=C1/Nc2ccccc2/C1=N\O` , what is its reported pIC50?
Out: 5.48

###

- Assay Target: CDK2/Cyclin A2 (Homo sapiens, UniProt P24941)
- Assay Overview: Inhibition of GST-fused human CDK2/cyclin A expressed in Escherichia coli using histone H1 as substrate in presence of [33p]-gamma ATP and MgATP
Recorded Endpoint: pIC50
The meaning of pIC50 here: minus log10 of the concentration in molar units.

In: Give pIC50 (CDK2/Cyclin A2 (Homo sapiens, UniProt P24941)) of the following compound: `O=C1Nc2ccccc2/C1=C1/Nc2ccccc2/C1=N\O`
Out: 6.23

###

- Assay Overview: Kinetic solubility of compound in PBS at pH 7.4
- Format: physicochemical
- Cond: read-out: Kinetic_solubility
Recorded Endpoint: solubility kinetic

In: Given the molecule `CN(C)CCN(C)S(=O)(=O)c1ccc2c(c1)/C(=C1/Nc3ccccc3/C1=N\O)C(=O)N2` , what is its reported solubility kinetic?
Out: 18 µg/mL

In: Also check `CN(C)S(=O)(=O)c1ccc2c(c1)/C(=C1/Nc3ccccc3/C1=N\O)C(=O)N2`
Out: < 1 µg/mL

In: Also check `CN(C)CCN(C)S(=O)(=O)c1ccc2c(c1)/C(=C1/Nc3ccccc3C1=O)C(=O)N2`
Out: 12 µg/mL

In: Also check C=CCC1(O)/C(=C2/C(=O)Nc3ccc(S(=O)(=O)N(C)C)cc32)Nc2ccccc21 (stereo not given)
Out: 31 µg/mL

In: Also check `CN(C)S(=O)(=O)c1ccc2c(c1)/C(=C1/Nc3ccccc3C1=O)C(=O)N2`
Out: < 1 µg/mL

###

- Assay Target: Cyclin-dependent kinase 5/CDK5 activator 1 (Homo sapiens, UniProt Q00535)
- Sequence (Q00535 whole entry): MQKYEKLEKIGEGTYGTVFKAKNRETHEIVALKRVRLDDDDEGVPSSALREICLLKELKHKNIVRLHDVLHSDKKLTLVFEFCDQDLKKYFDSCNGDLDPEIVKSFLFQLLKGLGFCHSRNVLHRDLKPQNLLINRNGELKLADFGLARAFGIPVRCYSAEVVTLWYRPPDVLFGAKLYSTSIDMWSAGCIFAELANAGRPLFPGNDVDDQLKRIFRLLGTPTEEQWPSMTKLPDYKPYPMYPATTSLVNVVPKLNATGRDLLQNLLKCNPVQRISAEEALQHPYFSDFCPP
- Sequence (Q15078 whole entry, further chain): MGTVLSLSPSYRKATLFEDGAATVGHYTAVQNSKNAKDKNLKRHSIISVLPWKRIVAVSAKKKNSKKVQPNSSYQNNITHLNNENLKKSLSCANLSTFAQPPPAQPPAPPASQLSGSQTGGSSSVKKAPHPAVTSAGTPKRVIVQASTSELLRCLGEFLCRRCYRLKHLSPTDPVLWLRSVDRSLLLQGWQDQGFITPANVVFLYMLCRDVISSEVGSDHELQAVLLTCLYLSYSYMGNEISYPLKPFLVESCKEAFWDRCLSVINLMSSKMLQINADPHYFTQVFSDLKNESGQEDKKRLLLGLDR
- Assay Overview: Inhibition of CDK5/p35 (unknown origin)
- Assay type: protein-complex assay
Recorded Endpoint: IC50 (nM)
The answer is to be given in nM; state only the numeric part.

In: Given the compound `O=C1Nc2ccc(S(=O)(=O)O)cc2/C1=C1/Nc2ccccc2C1=O` , what is its reported IC50?
Out: 65

###

- Assay Target: Serine/threonine-protein kinase Sgk1 (Homo sapiens, UniProt O00141)
- Sequence (O00141 whole entry): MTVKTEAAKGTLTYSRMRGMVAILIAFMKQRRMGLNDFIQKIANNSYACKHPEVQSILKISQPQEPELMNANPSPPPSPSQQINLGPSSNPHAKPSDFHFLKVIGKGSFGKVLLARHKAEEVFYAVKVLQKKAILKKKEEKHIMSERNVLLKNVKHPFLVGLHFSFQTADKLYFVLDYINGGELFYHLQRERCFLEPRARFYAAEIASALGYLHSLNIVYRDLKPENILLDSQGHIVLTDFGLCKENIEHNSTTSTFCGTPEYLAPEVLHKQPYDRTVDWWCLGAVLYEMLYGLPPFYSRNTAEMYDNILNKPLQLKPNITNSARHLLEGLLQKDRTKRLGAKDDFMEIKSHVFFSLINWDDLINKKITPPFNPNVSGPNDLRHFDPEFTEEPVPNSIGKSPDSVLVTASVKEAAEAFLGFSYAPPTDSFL
Recorded Endpoint: IC50 (nM)
The answer is to be given in nM; state only the numeric part.

In: Given the molecule `O=C1Nc2ccccc2/C1=C1/Nc2ccccc2/C1=N\O` , what is its reported IC50?
Out: 380

###

- Assay Target: Indoleamine 2,3-dioxygenase 1 (Homo sapiens, UniProt P14902)
- Sequence (P14902 whole entry): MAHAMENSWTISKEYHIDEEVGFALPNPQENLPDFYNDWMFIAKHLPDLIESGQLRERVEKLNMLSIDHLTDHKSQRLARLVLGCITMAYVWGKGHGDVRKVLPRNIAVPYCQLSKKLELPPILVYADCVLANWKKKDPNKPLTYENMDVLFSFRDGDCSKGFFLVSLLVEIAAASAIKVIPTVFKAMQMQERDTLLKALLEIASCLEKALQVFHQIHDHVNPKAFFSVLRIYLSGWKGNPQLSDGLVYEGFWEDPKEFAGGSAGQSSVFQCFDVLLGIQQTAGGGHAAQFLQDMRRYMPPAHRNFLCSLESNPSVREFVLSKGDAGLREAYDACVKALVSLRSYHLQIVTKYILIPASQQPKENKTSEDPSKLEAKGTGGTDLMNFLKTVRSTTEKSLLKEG
- Assay Overview: Inhibition of IDO1 in human Hela cells assessed as reduction in N-formylkynurenine formation incubated for 30 mins
Recorded Endpoint: pIC50
The meaning of pIC50 here: minus log10 of the concentration in molar units.

In: Given the compound Cc1cn(C2CC(n3cc(COCCOCCOCCN4C(=O)/C(=C5\Nc6ccccc6C5=O)c5ccccc54)nn3)C(CO)O2)c(=O)[nH]c1=O (configuration not stated) , what is its reported pIC50?
Out: 4.26

In: Also check O=C1CCC(N2C(=O)c3cccc(-n4cc(COCCOCCOCCN5C(=O)/C(=C6\Nc7ccccc7C6=O)c6ccccc65)nn4)c3C2=O)C(=O)N1 (configuration not stated)
Out: 4.47

###

- Test system: SNU-638
- Assay Overview: Antiproliferative activity against human SNU-638 cells assessed as cell growth inhibition measured after 24 hrs by MTT assay
- Type: functional, cell-based
- Cond: SNU-638, 24 h
For each record, write down the corresponding IC50.
The answer is to be given in µM; state only the numeric part.

In: Given the molecule `CC(C)(C)C(=O)Nc1ccc2c(c1)/C(=C1/Nc3ccccc3/C1=N\O)C(=O)N2` , what is its reported IC50?
Out: 6.5

In: Also check `O=C1Nc2ccc(F)cc2/C1=C1/Nc2ccccc2/C1=N\O`
Out: 2.1

###

- System: MV4-11
- Assay Overview: Antiproliferative activity against human MV4-11 cells assessed as cell growth inhibition measured after 72 hrs by tetrazolium staining based WST-8 assay
- Format: functional
- Cond: MV4-11, 72 h
Recorded Endpoint: pIC50
The meaning of pIC50 here: minus log10 of the concentration in molar units.

In: Given the compound `O=C1Nc2ccccc2/C1=C1/Nc2ccccc2/C1=N\O` , what is its reported pIC50?
Out: 7.52

###

- Assay Target: Receptor-type tyrosine-protein kinase FLT3 (Homo sapiens, UniProt P36888, D835Y)
- Assay Overview: Inhibition of recombinant FLT3 D835Y mutant (unknown origin) in presence of ATP by HTRF assay
Recorded Endpoint: IC50 (nM)
The answer is to be given in nM; state only the numeric part.

In: Given the compound `O=C1Nc2ccccc2/C1=C1/Nc2ccccc2/C1=N\O` , what is its reported IC50?
Out: 101

###

- System: HL-60
- Assay Overview: Antiproliferative activity against human HL-60 cells assessed as cell growth inhibition
- Type: functional, cell-based
Recorded Endpoint: IC50 (µM)
The answer is to be given in µM; state only the numeric part.

In: Given the molecule O=C1/C(=C2/C(=O)N(CC(O)CSc3nnc(Nc4ccccc4)s3)c3ccccc32)Nc2ccccc21 (centres undefined) , what is its reported IC50?
Out: 1.35

In: Also check O=C1Nc2ccccc2/C1=C1/Nc2ccccc2/C1=N\OCC(O)CSc1nnc(Nc2ccccc2)s1 (centres undefined)
Out: 9.52

In: Also check Cc1cccc(Nc2nnc(SCC(O)CO/N=C3/C(=C4/C(=O)Nc5ccccc54)Nc4ccccc43)s2)c1C (centres undefined)
Out: 12

In: Also check Cc1ccc(Nc2nnc(SCC(O)CN3C(=O)/C(=C4\Nc5ccccc5C4=O)c4ccccc43)s2)c(C)c1 (centres undefined)
Out: 4.28

###

- System: MCF7
- Assay Overview: Cytotoxicity against human MCF7 cells assessed as cell growth inhibition measured after 4 days by crystal violet staining based assay
- Assay type: functional
- Cond: MCF7, 96 h
Recorded Endpoint: IC50

In: Given the molecule `CN(C)S(=O)(=O)c1ccc2c(c1)/C(=C1/Nc3ccccc3C1=O)C(=O)N2` , what is its reported IC50?
Out: > 10000 nM

In: Also check `CN(C)S(=O)(=O)c1ccc2c(c1)/C(=C1/Nc3ccccc3/C1=N\O)C(=O)N2`
Out: 400 nM

In: Also check CN(C)CCN(C)S(=O)(=O)c1ccc2c(c1)/C(=C1/Nc3ccccc3C1(C)O)C(=O)N2 (stereo not drawn)
Out: < 100 nM

In: Also check C=CCC1(O)/C(=C2/C(=O)Nc3ccc(S(=O)(=O)N(C)C)cc32)Nc2ccccc21 (stereo not drawn)
Out: 200 nM

In: Also check C=CCC1(O)/C(=C2/C(=O)Nc3ccc(S(=O)(=O)N(C)CCN(C)C)cc32)Nc2ccccc21 (stereo not drawn)
Out: < 100 nM

In: Also check `CN(C)CCN(C)S(=O)(=O)c1ccc2c(c1)/C(=C1/Nc3ccccc3/C1=N\O)C(=O)N2`
Out: < 100 nM

In: Also check CN(C)S(=O)(=O)c1ccc2c(c1)/C(=C1/Nc3ccccc3C1(C)O)C(=O)N2 (stereo not drawn)
Out: 700 nM

In: Also check `CN(C)CCN(C)S(=O)(=O)c1ccc2c(c1)/C(=C1/Nc3ccccc3C1=O)C(=O)N2`
Out: < 100 nM

###

For each record, write down the corresponding IC50.
- Assay Overview: Inhibition of GST-tagged recombinant human CDK2/cyclin E expressed in Sf9 cells incubated for 10 mins in presence of [33P]-gamma ATP and ATP by scintillation counter method
The answer is to be given in nM; state only the numeric part.

In: Given the compound `CN(C)S(=O)(=O)c1ccc2c(c1)/C(=C1/Nc3ccccc3C1=O)C(=O)N2` , what is its reported IC50?
Out: 40

In: Also check C=CCC1(O)/C(=C2/C(=O)Nc3ccc(S(=O)(=O)N(C)CCN(C)C)cc32)Nc2ccccc21 (stereo not drawn)
Out: 40

In: Also check `CN(C)CCN(C)S(=O)(=O)c1ccc2c(c1)/C(=C1/Nc3ccccc3C1=O)C(=O)N2`
Out: 10

In: Also check `CN(C)CCN(C)S(=O)(=O)c1ccc2c(c1)/C(=C1/Nc3ccccc3/C1=N\O)C(=O)N2`
Out: 40

In: Also check CN(C)S(=O)(=O)c1ccc2c(c1)/C(=C1/Nc3ccccc3C1(C)O)C(=O)N2 (stereo not drawn)
Out: 70

In: Also check `CN(C)S(=O)(=O)c1ccc2c(c1)/C(=C1/Nc3ccccc3/C1=N\O)C(=O)N2`
Out: 40

In: Also check CN(C)CCN(C)S(=O)(=O)c1ccc2c(c1)/C(=C1/Nc3ccccc3C1(C)O)C(=O)N2 (stereo not drawn)
Out: 70

In: Also check C=CCC1(O)/C(=C2/C(=O)Nc3ccc(S(=O)(=O)N(C)C)cc32)Nc2ccccc21 (stereo not drawn)
Out: 90

Just for reference, ChEMBL document CHEMBL5149994 is where these values come from.
